These data points were gathered from the supplement of paper PMC4022240.

Target: T1, HaloTag-ATRX ADD domain (163-292)
T1 chain: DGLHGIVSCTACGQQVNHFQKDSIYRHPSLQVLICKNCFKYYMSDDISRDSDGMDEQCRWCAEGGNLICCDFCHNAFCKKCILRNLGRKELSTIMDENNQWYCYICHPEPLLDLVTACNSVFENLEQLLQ
Experiment: peptide microarray binding signal (635 nm), min-max normalized on array (fraction of array maximum); higher = stronger binding
Details: peptide region: Unmod H2B variant; binder concentration: 500 nM
// false (0) strictly below 0.01 in peptide microarray binding signal; true (1) otherwise

Prompt: Answer whether peptide microarray binding signal of NSFVNDIFERIAG [Unmod H2B variant N S F V N D I F E R I A G] is greater than or equal to 0.01.
Response: false (0)

Prompt: Answer whether peptide microarray binding signal of PEPTKSAPAPKKG [Unmod H2B variant P E P T K S A P A P K K G] is greater than or equal to 0.01.
Response: true (1)

Prompt: Answer whether peptide microarray binding signal of PKKGSKKAVTKAQ [Unmod H2B variant P K K G S K K A V T K A Q] is greater than or equal to 0.01.
Response: false (0)

Prompt: Answer whether peptide microarray binding signal of PEVSSKGATISKK [Unmod H2B variant P E V S S K G A T I S K K] is greater than or equal to 0.01.
Response: false (0)

Prompt: Answer whether peptide microarray binding signal of NSFVTDIFERIAS [Unmod H2B variant N S F V T D I F E R I A S] is greater than or equal to 0.01.
Response: true (1)

Prompt: Answer whether peptide microarray binding signal of KHAVSEGTKAVTK [Unmod H2B variant K H A V S E G T K A V T K] is greater than or equal to 0.01.
Response: false (0)

Prompt: Answer whether peptide microarray binding signal of GISSKAMGIMNSF [Unmod H2B variant G I S S K A M G I M N S F] is greater than or equal to 0.01.
Response: true (1)

Prompt: Answer whether peptide microarray binding signal of KRSRKESYSIYVY [Unmod H2B variant K R S R K E S Y S I Y V Y] is greater than or equal to 0.01.
Response: false (0)

Prompt: Answer whether peptide microarray binding signal of APKKGSKKAVTKA [Unmod H2B variant A P K K G S K K A V T K A] is greater than or equal to 0.01.
Response: false (0)

Prompt: Answer whether peptide microarray binding signal of YSKRSTISSREIQ [Unmod H2B variant Y S K R S T I S S R E I Q] is greater than or equal to 0.01.
Response: true (1)

Prompt: Answer whether peptide microarray binding signal of IAGEASRLAHYNK [Unmod H2B variant I A G E A S R L A H Y N K] is greater than or equal to 0.01.
Response: true (1)

Prompt: Answer whether peptide microarray binding signal of PEPSKSAPAPKKG [Unmod H2B variant P E P S K S A P A P K K G] is greater than or equal to 0.01.
Response: true (1)

Prompt: Answer whether peptide microarray binding signal of AMGIMNSFVNDIF [Unmod H2B variant A M G I M N S F V N D I F] is greater than or equal to 0.01.
Response: true (1)

Prompt: Answer whether peptide microarray binding signal of VHPDTGISSKAMG [Unmod H2B variant V H P D T G I S S K A M G] is greater than or equal to 0.01.
Response: true (1)

Prompt: Answer whether peptide microarray binding signal of ISKKGFKKAVVKT [Unmod H2B variant I S K K G F K K A V V K T] is greater than or equal to 0.01.
Response: true (1)

Prompt: Answer whether peptide microarray binding signal of DIFERIASEASRL [Unmod H2B variant D I F E R I A S E A S R L] is greater than or equal to 0.01.
Response: false (0)
